ASSAY_SYSTEM: Protein farnesyltransferase (Homo sapiens, UniProt P49354+P49356)
ASSAY_DETAILS: Inhibitory activity against farnesyltransferase (FPT) (20 ug/mL)
Format: protein-complex assay
RESULT_TYPE: inhibition (%)

// field: inhibition; key: Fc1ccc2c(c1)[C@@H](OCc1ccc(Cl)c(Cl)c1)[C@@H](Cn1ccnc1)S2 ; value = 96

// field: inhibition; key: Clc1ccc2c(c1)S[C@H](Cn1ccnc1)[C@@H]2OCc1ccsc1 ; value = 95

// field: inhibition; key: O[C@@H]1c2ccc(C(F)(F)F)cc2S[C@@H]1Cn1ccnc1 ; value = 42

A = Clc1ccc2c(c1)S[C@H](Cn1ccnc1)[C@@H]2OCc1ccc(Cl)c(Cl)c1
B = Clc1ccc(COC2c3c(Cl)cc(Cl)cc3SC2Cn2ccnc2)c(Cl)c1 (stereo unspecified)
Of A and B , which one carries the higher reported inhibition? Your choice should be expressed through its label.
A
(A: 95%, B: 60%)

a = Clc1ccc2c(c1)C(OCc1ccsc1Cl)C(Cn1ccnc1)S2 (stereo unspecified)
b = Cc1cccc2c1[C@@H](O)[C@@H](Cn1ccnc1)S2
c = O[C@@H]1c2cccc(Cl)c2S[C@@H]1Cn1ccnc1
d = OCc1nccn1C[C@H]1Sc2cc(Cl)ccc2[C@H]1OCc1ccsc1Cl
Put the items in sequence by inhibition, from largest down. Write the labels out in the order the request specifies.
a, c, d, b
(a: 92%, c: 44%, d: 30%, b: 14%)

a = Clc1cc2c(cc1Cl)C(OCc1ccsc1Cl)C(Cn1ccnc1)S2 (stereo unspecified)
b = Clc1sccc1CO[C@@H]1c2cc3c(cc2S[C@@H]1Cn1ccnc1)CCCC3
Of a and b , which one carries the higher reported inhibition? Your choice should be expressed through its label.
a

----------
ASSAY_SYSTEM: Protein farnesyltransferase (Homo sapiens, UniProt P49354+P49356)
ASSAY_DETAILS: Inhibitory activity against recombinant human farnesyltransferase
Type: protein-complex assay
pIC50: −log10 of the molar value.
RESULT_TYPE: pIC50

// field: pIC50; key: Clc1ccc(COC2c3cc(Cl)ccc3SC2Cn2ccnc2)c(Cl)c1 (stereo not given) ; value = 6.70

// field: pIC50; key: COC(=O)[C@@H](Cc1ccccc1)NC(=O)[C@@H](Cc1c[nH]c2ccccc12)NC(=O)[C@H](Cc1ccccc1)CP(=O)(O)O ; value = 6.15

A = Clc1ccc2c(c1)C(OCc1c(Cl)cccc1Cl)C(Cn1ccnc1)S2 (stereo not given)
B = O=C(Cc1ccncc1)N1CCC(=C2c3ccc(Cl)cc3CCc3ccc[n+]([O-])c32)CC1
C = Fc1ccc2c(c1)[C@@H](OCc1ccc(Cl)c(Cl)c1)[C@@H](Cn1ccnc1)S2
D = Clc1ccc2c(c1)S[C@H](Cn1ccnc1)[C@@H]2OCc1ccsc1
E = Clc1ccc(COC2c3c(Cl)cccc3SC2Cn2ccnc2)cc1 (stereo not given)
Put the items in sequence by pIC50, from largest down. Write the labels out in the order the request specifies.
C, E, B, A, D
(C: 6.15, E: 5.89, B: 5.68, A: 5.28, D: 4.80)

a = O=C(Nc1ccncc1)N1CCC(=C2c3ccc(Cl)cc3CCc3cccnc32)CC1
b = O=C(O)c1ccc(C(=O)N2CCC(=C3c4ccc(Cl)cc4CCc4cccnc43)CC2)cc1
c = Clc1sccc1CO[C@@H]1c2ccc3ccccc3c2S[C@@H]1Cn1ccnc1
d = C=CCO[C@@H]1c2ccc(Cl)cc2S[C@@H]1Cn1ccnc1
e = CN1CCC(C2c3ccccc3CCc3cccnc32)CC1 (stereo not given)
Order each entry by recorded pIC50, climbing from the minimum. Write the labels out in the order the request specifies.
e, d, b, c, a
(e: 3.14, d: 5.07, b: 5.28, c: 5.82, a: 6.06)

I = O=C(Cc1ccccc1)N1CCC(=C2c3ccc(Cl)cc3CCc3cccnc32)CC1
II = Cc1onc(-c2ccccc2)c1CO[C@@H]1c2ccc(Cl)cc2S[C@@H]1Cn1ccnc1
III = Cc1cccc2c1[C@@H](O)[C@@H](Cn1ccnc1)S2
Order each entry by recorded pIC50, climbing from the minimum. Write the labels out in the order the request specifies.
III, II, I

I = O=C(Cc1cccnc1)N1CCC(=C2c3ccc(Cl)cc3CCc3cccnc32)CC1
II = Clc1sccc1CO[C@@H]1c2cc(Br)ccc2S[C@@H]1Cn1ccnc1
Which record shows the lower pIC50: the first, I , or the second, II ? Your choice should be expressed through its label.
II

----------
ASSAY_SYSTEM: Geranylgeranyl transferase type I (Homo sapiens, UniProt P49354+P53609)
ASSAY_DETAILS: Inhibitory activity against Geranylgeranyl transferase type I
RESULT_TYPE: IC50 (µM)

Please review the entries below; each comes with its answer.
The value of IC50 recorded for Clc1ccc2c(c1)S[C@H](Cn1ccnc1)[C@@H]2OCc1c(Cl)sc2ccccc12 when tested on Geranylgeranyl transferase type I (Homo sapiens, UniProt P49354+P53609) reads 38

The value of IC50 recorded for Clc1cc(Cl)c2c(c1)[C@@H](OCc1ccsc1Cl)[C@@H](Cn1ccnc1)S2 when tested on Geranylgeranyl transferase type I (Homo sapiens, UniProt P49354+P53609) reads 16.2

The value of IC50 recorded for Clc1cc2c(cc1Cl)C(OCc1ccsc1Cl)C(Cn1ccnc1)S2 (stereo not given) when tested on Geranylgeranyl transferase type I (Homo sapiens, UniProt P49354+P53609) reads 2.9

a = Clc1ccc2c(c1)S[C@H](Cn1ccnc1)[C@@H]2OCc1cnc2cc3c(cc2c1Cl)OCO3
b = Clc1ccc2c(c1)S[C@H](Cn1ccnc1)[C@@H]2OCc1ccc(Cl)s1
c = Clc1sccc1CO[C@@H]1c2c(ccc3c2CCCC3)S[C@@H]1Cn1ccnc1
d = Clc1ccc(COC2c3cc(Cl)ccc3SC2Cn2ccnc2)c(Cl)c1 (stereo not given)
Put the items in sequence by IC50, from largest down. Write the labels out in the order the request specifies.
c, b, a, d
(c: 16.8 µM, b: 5 µM, a: 1.4 µM, d: 0.7 µM)

----------
ASSAY_SYSTEM: Protein farnesyltransferase (Homo sapiens, UniProt P49354+P49356)
ASSAY_DETAILS: Inhibition of Farnesyltransferase (FPT) in FPT Ras/TCA assay
Assay type: protein-complex assay
RESULT_TYPE: IC50 (µM)
Your answer is read as µM, so omit the unit and give the number.

// field: IC50; key: Clc1ccc2c(c1)S[C@H](Cn1ccnc1)[C@@H]2OCc1cnc2cc3c(cc2c1Cl)OCO3 ; value = 3.1

----------
ASSAY_SYSTEM: Protein farnesyltransferase (Homo sapiens, UniProt P49354+P49356)
ASSAY_DETAILS: Inhibitory activity against farnesyltransferase (FPT) (20 ug/mL)
Format: protein-complex assay
RESULT_TYPE: inhibition (%)

// field: inhibition; key: Clc1ccc(COC2c3ccc(Cl)cc3SC2Cn2ccnc2)c(Cl)c1 (stereo unspecified) ; value = 75

A = Fc1cccc(Cl)c1CO[C@@H]1c2ccc(Cl)cc2S[C@@H]1Cn1ccnc1
B = O[C@@H]1c2ccc(F)cc2S[C@@H]1Cn1ccnc1
C = O=S1(=O)c2cc(Cl)ccc2C(OCc2ccc(Cl)cc2Cl)C1Cn1ccnc1 (stereo unspecified)
D = Clc1ccc2c(c1)S[C@H](CN1CCOCC1)[C@@H]2OCc1ccsc1Cl
Put the items in sequence by inhibition, from largest down. Write the labels out in the order the request specifies.
A, C, B, D
(A: 92%, C: 60%, B: 38%, D: 2%)

1 = Clc1cc(Cl)c2c(c1)[C@@H](OCc1ccsc1Cl)[C@@H](Cn1ccnc1)S2
2 = OC1c2ccc(Cl)cc2SC1Cn1ccnc1 (stereo unspecified)
Which record shows the lower inhibition: the first, 1 , or the second, 2 ? Your choice should be expressed through its label.
2

P = Clc1ccc2c(c1)S[C@H](Cn1ccnc1)[C@@H]2OCc1c(Cl)sc2ccccc12
Q = Clc1ccc(COC2c3cc(Cl)ccc3SC2Cn2ccnc2)c(Cl)c1 (stereo unspecified)
Which record shows the lower inhibition: the first, P , or the second, Q ? Your choice should be expressed through its label.
P
(P: 68%, Q: 99%)

----------
ASSAY_SYSTEM: Protein farnesyltransferase (Homo sapiens, UniProt P49354+P49356)
ASSAY_DETAILS: Inhibitory activity against farnesyltransferase (FPT) (20 ug/mL)
Type: protein-complex assay
RESULT_TYPE: inhibition (%)

Please review the entries below; each comes with its answer.
The value of inhibition recorded for Clc1ccc2c(c1)S[C@H](Cn1ccnc1)[C@@H]2OCc1cscn1 when tested on Protein farnesyltransferase (Homo sapiens, UniProt P49354+P49356) reads 90

The value of inhibition recorded for O[C@@H]1c2cc(Br)ccc2S[C@@H]1Cn1ccnc1 when tested on Protein farnesyltransferase (Homo sapiens, UniProt P49354+P49356) reads 44

The value of inhibition recorded for Fc1ccc2c(c1)[C@@H](OCc1c(F)cccc1Cl)[C@@H](Cn1ccnc1)S2 when tested on Protein farnesyltransferase (Homo sapiens, UniProt P49354+P49356) reads 94

The value of inhibition recorded for Clc1ccc(COC2c3c(Cl)cccc3SC2Cn2ccnc2)cc1 (stereo not given) when tested on Protein farnesyltransferase (Homo sapiens, UniProt P49354+P49356) reads 95

The value of inhibition recorded for Clc1sccc1CO[C@@H]1c2ccc3ccccc3c2S[C@@H]1Cn1ccnc1 when tested on Protein farnesyltransferase (Homo sapiens, UniProt P49354+P49356) reads 76

a = C=CCO[C@@H]1c2ccc(Cl)cc2S[C@@H]1Cn1ccnc1
b = O[C@@H]1c2cc(F)ccc2S[C@@H]1Cn1ccnc1
Which record shows the lower inhibition: the first, a , or the second, b ? Your choice should be expressed through its label.
b
